# credit: patent US9006450B2

target: human ACC2 (Homo sapiens); construct: made in house; host or cells: insect cells (baculoviral expression system); assay: ACC2 assay, spectrophotometric 384 well assay (NADH-linked, coupled lactate dehydrogenase/pyruvate kinase); type: biochemical; details: ACC2 assay, hACC2 construct lacking 128 N-terminal amino acids, 25° C., 340 nm; read-out: IC50
Sequence (O00763 129-2458 limits assumed): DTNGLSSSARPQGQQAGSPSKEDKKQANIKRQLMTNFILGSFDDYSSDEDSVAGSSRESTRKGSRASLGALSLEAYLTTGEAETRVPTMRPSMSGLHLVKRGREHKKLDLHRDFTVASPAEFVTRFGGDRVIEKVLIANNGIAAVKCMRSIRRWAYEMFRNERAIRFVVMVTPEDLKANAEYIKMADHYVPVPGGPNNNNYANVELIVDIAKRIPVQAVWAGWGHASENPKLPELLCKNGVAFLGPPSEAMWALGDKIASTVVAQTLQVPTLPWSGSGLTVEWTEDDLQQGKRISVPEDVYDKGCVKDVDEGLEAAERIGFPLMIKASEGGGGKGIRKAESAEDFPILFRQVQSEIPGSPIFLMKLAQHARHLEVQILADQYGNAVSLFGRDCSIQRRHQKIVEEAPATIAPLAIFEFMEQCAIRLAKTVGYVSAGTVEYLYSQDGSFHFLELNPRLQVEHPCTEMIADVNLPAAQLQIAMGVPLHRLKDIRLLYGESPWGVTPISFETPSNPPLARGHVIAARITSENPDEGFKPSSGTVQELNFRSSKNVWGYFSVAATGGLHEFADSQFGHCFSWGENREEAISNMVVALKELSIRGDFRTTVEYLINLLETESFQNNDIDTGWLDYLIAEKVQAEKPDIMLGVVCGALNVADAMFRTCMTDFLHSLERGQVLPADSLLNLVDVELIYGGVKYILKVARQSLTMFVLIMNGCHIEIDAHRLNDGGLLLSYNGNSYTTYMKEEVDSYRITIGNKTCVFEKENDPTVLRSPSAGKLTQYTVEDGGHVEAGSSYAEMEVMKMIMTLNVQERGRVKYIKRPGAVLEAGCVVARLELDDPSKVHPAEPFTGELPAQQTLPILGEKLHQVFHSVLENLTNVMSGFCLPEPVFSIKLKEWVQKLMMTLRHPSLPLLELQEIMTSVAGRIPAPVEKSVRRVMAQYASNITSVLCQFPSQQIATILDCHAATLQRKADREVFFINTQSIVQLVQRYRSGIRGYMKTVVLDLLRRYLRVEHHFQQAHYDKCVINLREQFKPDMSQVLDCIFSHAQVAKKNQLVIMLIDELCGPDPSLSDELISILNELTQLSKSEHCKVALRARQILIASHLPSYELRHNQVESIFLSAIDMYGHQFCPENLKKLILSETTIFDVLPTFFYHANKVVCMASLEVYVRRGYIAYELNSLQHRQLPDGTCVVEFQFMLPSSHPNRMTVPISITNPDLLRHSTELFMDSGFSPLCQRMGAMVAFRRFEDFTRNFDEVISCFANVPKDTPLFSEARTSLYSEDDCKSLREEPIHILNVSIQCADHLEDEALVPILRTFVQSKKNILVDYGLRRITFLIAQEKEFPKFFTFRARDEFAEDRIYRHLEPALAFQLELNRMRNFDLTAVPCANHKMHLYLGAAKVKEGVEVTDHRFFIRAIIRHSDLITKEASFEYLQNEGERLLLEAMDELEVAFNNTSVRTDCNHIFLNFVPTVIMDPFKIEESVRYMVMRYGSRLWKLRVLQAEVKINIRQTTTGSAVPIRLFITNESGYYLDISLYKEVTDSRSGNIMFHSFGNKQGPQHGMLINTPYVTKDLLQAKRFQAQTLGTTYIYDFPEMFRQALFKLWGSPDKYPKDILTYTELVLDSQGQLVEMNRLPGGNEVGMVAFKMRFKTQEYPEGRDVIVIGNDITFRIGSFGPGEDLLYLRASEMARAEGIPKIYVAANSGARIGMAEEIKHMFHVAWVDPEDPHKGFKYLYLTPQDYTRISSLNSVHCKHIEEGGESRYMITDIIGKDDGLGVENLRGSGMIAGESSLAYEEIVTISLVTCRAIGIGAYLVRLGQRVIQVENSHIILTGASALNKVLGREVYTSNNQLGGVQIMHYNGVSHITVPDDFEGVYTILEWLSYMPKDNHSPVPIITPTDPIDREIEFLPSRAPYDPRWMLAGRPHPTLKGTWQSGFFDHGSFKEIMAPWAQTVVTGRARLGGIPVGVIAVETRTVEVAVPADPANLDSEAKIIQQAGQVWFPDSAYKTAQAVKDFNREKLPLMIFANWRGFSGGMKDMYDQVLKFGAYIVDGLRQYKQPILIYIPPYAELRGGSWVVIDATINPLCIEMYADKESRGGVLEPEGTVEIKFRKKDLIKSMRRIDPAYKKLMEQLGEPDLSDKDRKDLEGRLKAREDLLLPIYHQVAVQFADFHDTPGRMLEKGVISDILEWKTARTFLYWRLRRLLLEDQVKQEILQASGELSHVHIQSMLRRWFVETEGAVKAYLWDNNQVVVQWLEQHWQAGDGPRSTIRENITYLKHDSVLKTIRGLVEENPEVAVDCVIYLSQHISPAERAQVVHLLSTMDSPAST
measuredProperty: IC50 (nM)
Numeric answer only, unit nM assumed.

Recall and state the measured IC50 for CC(=O)N[C@@H](C)c1ccc(C2CCN(c3ccnc(OC4CCCC4)n3)CC2)cc1 [Example 11.8] . 490

Recall and state the measured IC50 for COCCOc1nccc(N2CCC(c3ccc([C@H](C)NC(C)=O)cc3)CC2)n1 [Example 11.30] . 8400

Recall and state the measured IC50 for CC(=O)N[C@@H](C)c1ccc(C2CCN(c3nccc(C(F)(F)F)n3)CC2)cc1 [Example 4.11] . 850

Recall and state the measured IC50 for CCOc1ccc(N2CCC(c3ccc([C@H](C)NC(=O)c4cnc[nH]4)cc3)CC2)cc1 [Example 6.24] . 3900

Recall and state the measured IC50 for COc1ccc(COc2cc(N3CCC(c4ccc([C@H](C)NC(C)=O)cc4)CC3)ccn2)cc1 [Example 19.35] . 27400

Recall and state the measured IC50 for CC(=O)N[C@@H](C)c1ccc(C2CCN(c3ncc(-c4cccn4C)cn3)CC2)cc1 [Example 10.72] . 1200

Recall and state the measured IC50 for CC(=O)N[C@@H](C)c1ccc(C2CCN(c3ccc4oc(C5CC5)nc4c3)CC2)cc1 [Example 15.14] . 880

Recall and state the measured IC50 for CCCOc1ccc(N2CCC(c3ccc([C@H](C)NC(C)=O)cc3)CC2)cc1C [Example 8.31] . 1200

###

Please respond with reported pIC50 for every item in the list.
target: human ACC2 (Homo sapiens); construct: made in house; host or cells: insect cells (baculoviral expression system); assay: ACC2 assay, spectrophotometric 384 well assay (NADH-linked, coupled lactate dehydrogenase/pyruvate kinase); type: biochemical; details: ACC2 assay, hACC2 construct lacking 128 N-terminal amino acids, 25° C., 340 nm; read-out: IC50
The quantity pIC50 is defined as the negative base-10 logarithm of the molar concentration.

Quote pIC50 with test system human ACC2 (Homo sapiens) for COc1ccnc(N2CCC(c3ccc([C@H](C)NC(C)=O)cc3)CC2)c1 5.96

Quote pIC50 with test system human ACC2 (Homo sapiens) for CC(=O)N[C@@H](C)c1ccc(C2CCN(c3ccc(-c4ccc5[nH]ccc5c4)cn3)CC2)cc1 6.49

Quote pIC50 with test system human ACC2 (Homo sapiens) for CCOc1ccc(N2CCC(c3ccc([C@H](C)NC(=O)CC(=O)OC)cc3)CC2)cc1 5.80

Quote pIC50 with test system human ACC2 (Homo sapiens) for CC(=O)N[C@@H](C)c1ccc(C2CCN(c3ccnc(-c4ccc5c(c4)OCO5)n3)CC2)cc1 5.96

Quote pIC50 with test system human ACC2 (Homo sapiens) for COc1cccc(Oc2nccc(N3CCC(c4ccc([C@H](C)NC(C)=O)cc4)CC3)n2)c1 5.96

Quote pIC50 with test system human ACC2 (Homo sapiens) for CC(=O)N[C@@H](C)c1ccc(C2CCN(c3ncc(-c4ccc(C(F)(F)F)nc4)cn3)CC2)cc1 5.59

Quote pIC50 with test system human ACC2 (Homo sapiens) for CCCC(C)Oc1cccc(N2CCC(c3ccc([C@H](C)NC(C)=O)cc3)CC2)c1 (some centres unmarked) 6.52

Quote pIC50 with test system human ACC2 (Homo sapiens) for CC(=O)N[C@@H](C)c1ccc(C2CCN(c3ncccn3)CC2)cc1 5.82
